target: human Mac-1 (integrin αMβ2, CD11b/CD18) (human, UniProt P11215 17-1152; P05107 23-769); assay: flow cytometry, HEK293/Mac-1 cells; MFI in PBS over MFI in PBS/MnCl2
property-name: Mock/Mn^2+ Ratio
Number only, please.

Give Mock/Mn^2+ Ratio for the following binder: anti-Mac-1 antibody clone 28D06 (antibody, human IgG4, V domains shown) VH: QVKLQQSGPELVKPGASVKISCKASGYSFTDYNMNWVKQSNGKSLEWIGEINPNYGTTRYNQKFKGKATLTVDQSSSTAYMQLNSLTSEDSAVYYCARPSIYYDYDDAMDYWGQGTTVTVSS VL: DIELTQSPAIMSASPGEKVTMTCSASSSVNYMYWYQQKPGSSPRLLIYDTSNLASGVPVRFSGSGSGTSYSLTISRMEAEDAATYYCQQWITYPPTLTFGAGTKLEIK
1.69

Dear colleague, please send me the reported Mock/Mn^2+ Ratio for anti-Mac-1 antibody clone 28E07-HH (antibody, human IgG4, V domains shown) VH: QVQLVQSGAEVKKPGASVKVSCKASGYSFTDYNMNWVRQAPGQGLEWMGEINPGYGTSRYNQKFKDRVTMTRDTSISTAYMELSRLRSDDTAVYYCARADVDYGDVMDYWGQGTLVTVSS VL: EIVLTQSPATLSLSPGERATLSCSASSSVSYMHWYQQKPGQAPRLLIYDTSKLASGIPARFSGSGSGTDFTLTISSLEPEDFAVYYCQQWSSNPPTFGQGTKLEIK when you can.
1.01

Fill in Mock/Mn^2+ Ratio for record anti-Mac-1 antibody clone DF3M-5 (antibody, human IgG4, V domains shown) VH: EVQLVESGGGLVQPGGSLRLSCAASGFTFGTYDMHWVRQAPGKGLEWVSMISPSGGDTYYADSVKGRFTISRDNSKNTLYLQMNSLRAEDTAVYYCARDSSGDWYAMAYWGQGTLVTVSS VL: DIQMTQSPSSLSASVGDRVTITCRASQSIRRYLAWYQQKPGKAPKLLIYGASNLQSGVPSRFSGSGSGTDFTLTISSLQPEDFATYYCQHSSDTPLTFGQGTKVEIK
0.66
